- TARGET_DESC: T1, human GIP receptor (human, UniProt P48546 22-466)
- T1 sequence (looked up): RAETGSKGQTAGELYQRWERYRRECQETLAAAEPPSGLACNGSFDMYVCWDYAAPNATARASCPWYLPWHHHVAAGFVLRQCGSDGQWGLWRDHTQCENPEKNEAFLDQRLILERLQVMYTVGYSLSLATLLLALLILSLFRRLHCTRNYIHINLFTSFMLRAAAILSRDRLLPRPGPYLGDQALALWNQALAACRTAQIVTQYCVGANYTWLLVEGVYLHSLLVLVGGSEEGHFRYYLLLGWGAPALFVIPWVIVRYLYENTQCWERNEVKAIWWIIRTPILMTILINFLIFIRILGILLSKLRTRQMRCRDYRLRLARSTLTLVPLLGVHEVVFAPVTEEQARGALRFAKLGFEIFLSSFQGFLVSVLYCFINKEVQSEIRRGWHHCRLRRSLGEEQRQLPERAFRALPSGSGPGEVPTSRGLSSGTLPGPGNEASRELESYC
- PROCEDURE_DETAILS: cell-based or functional assay
*1 amine or outer side, *2 acyl side, *3 side chain or, on linkers, in order; H or OH if unused. Where no end group is shown, it is not given here. Side-chain parts run from the residue outwards. [ ]: non-standard residue; d: D form. The star is where a group is joined. phenyl lactic acid = phenyl lactic acid at the N-terminus; C18 diacid = O=C(O)CCCCCCCCCCCCCCCCC(=O)*; C16 diacid = O=C(O)CCCCCCCCCCCCCCC(=O)*; γGlu = O=C(O)[C@H](CCC(=O)[*:2])N[*:1]; Nle = CCCC[C@H](N)C(=O)O; AEEA = NCCOCCOCC(=O)O
Rule: MET for cAMP antagonism not less than 10 nM, NOT MET for anything less.

- [βGlu]GTFISDYSIA[Nle]DKIK(C16 diacid)QQDFVEWLLAQKPSSGAPPPS-OH [AT699]: NOT MET
- EGTFISDYSIAMDKIK(C16 diacid)QQDFVNWLLAQKGKKNDWKHN-OH [AT362]: MET
- EGTFISDYSIALDKIKQQDFVNWLLAQKPSSGAPPPS (βGlu at 3; Aib at 13; Nle at 14; K18: C16-diacid; C-term COOH) [AT703]: NOT MET
- EGTFISDYSIA[Nle]DKIK([AEEA-AEEA-γGlu-C18 diacid])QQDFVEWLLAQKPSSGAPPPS-OH [AT683]: MET
- {phenyl lactic acid}-PGTFISDYSIAMDKIKQQDFVNWLLAQKPSSGAPPPSK(C16 diacid)-NH2 (not fully specified) [AT652]: MET
